- Test system: SK-MEL-5
- Protocol description: NCI tumour cell line growth inhibition, 48 h
The source made the active and inactive calls. No stated cut-off is given here; in the data, active = GI50 up to about 1.1 µM and inactive = higher.
Pick one and only one: true (1) for active, false (0) for inactive

Worked set:
CC(=O)c1ccc2c(c1)N(CCCN1CCN(CCO)CC1)c1ccccc1C2; false (0)
CCN(CC)CCn1c(=O)c2cccnc2n2c3c(=O)n(C)c(=O)n(C)c3nc12; false (0)
CC(C)OC(=O)NNc1cc(Cl)ccc1Cl; false (0)
CCOC(=O)C(=NN(C)c1ncccc1N)C(=O)OCC; false (0)
CCOC(=O)Nc1cc2c(c(N)n1)N=C(c1ccccc1)CN2; true (1)

As a next step, examine the compound that follows.
Fill in: this test's call for O=C1/C(=C/c2ccc3c(c2)OCO3)CCC1CN1CCOCC1 (stereo unspecified) is ___
false (0)

###

- Tested on: SF-295
- Protocol description: NCI tumour cell line growth inhibition, 48 h
The source made the active and inactive calls. No stated cut-off is given here; in the data, active = GI50 up to about 1.1 µM and inactive = higher.
// one of active, inactive, no free text

Solved cases below.
Clc1nc(Cl)c(Cc2ccccc2)c(Cl)n1; inactive
CCOC(=O)c1sc2c(c1OC(=O)c1ccc(Cl)cc1Cl)c(=O)n(-c1ccccc1)c(=S)n2-c1ccccc1; inactive
O=C(O)CNCc1c2ccccc2[n+]([O-])c2ccccc12; inactive
CC(C)OC(=O)NNc1cc(Cl)ccc1Cl; inactive
O=C(NC1(c2cc3ccccc3s2)CCCCC1)C1CCC1; inactive
COC(=O)c1ccc(/C=N/c2ccc(S(N)(=O)=O)cc2)cc1; inactive

Lab log entry: `Cc1ccc(/C=C(\C#N)c2ccccc2)cc1` — outcome as called in the assay?
inactive

Record request — test call for `O=C1c2cccc3cc([N+](=O)[O-])cc(c23)C(=O)N1CCCN1CCN(CCCN2C(=O)c3cccc4cc([N+](=O)[O-])cc(c34)C2=O)CC1`
active

Check the results log: what was the call for `CN(C)CCn1c(=O)c2ccc3c4c(nn3CCN(C)C)c3ccccc3n(c1=O)c24` ?
active

// outcome(item) with item = `O=c1c2c3c(sc2nc2n1sc1nc4sc5c(c4c(=O)n12)CCCC5)CCCC3`
inactive

Status in this test for `COc1cc(NCC(C#N)C#N)ccc1/N=N/c1ccc([N+](=O)[O-])cc1` ?
inactive

Just curious, what result did `C=CCN(c1cc(OC)c2[nH]c(C(=O)OCC)c(C)c2c1[N+](=O)[O-])S(C)(=O)=O` get here?
inactive

// outcome(item) with item = [O-][S+]1c2ccccc2N=C(c2ccc3ccccc3c2)CC1c1ccccc1 (stereo unspecified)
inactive

I would be grateful if you could indicate the recorded call for `Cn1c(=O)c2[nH]c(N/N=C3/SCC(=O)N3Cc3ccccc3)nc2n(C)c1=O` .
inactive

Test call for this compound, please: O=C(CC1C(=O)Nc2ccccc2S1(=O)=O)Nc1cccc(Cl)c1 (stereo unspecified)
inactive

Could you check what this test reported for CC(C)N(C(=O)C12C3C4C1C1C4(C#N)C3C12C(=O)O)C(C)C (stereo unspecified) ?
inactive

What outcome does the record of this test show for Cc1cccc2c1CC(Cc1ccccc1C(=O)O)C2=O (stereo unspecified) ?
inactive

Call for entry `COc1ccc2ccc3oc(=O)c(C)cc3c2c1` :
inactive

Any idea what this test logged for `CCOC(=O)Cn1nc2ccc(Nc3nc4ccccc4nc3C(=O)OCC)cc2n1` ?
inactive

Lab log entry: `CC(=O)NNc1nc(C)c(C(/C=C/c2cccc([N+](=O)[O-])c2)=N/NC(=S)NN)s1` — outcome as called in the assay?
inactive

Could you check what this test reported for CCCCNC1CCC2(SCCS2)c2[nH]c3ccccc3c21 (stereo unspecified) ?
inactive

Origin of the recorded values: ChEMBL document CHEMBL1201862
